Recorded inhibition at 10 µM, one value per entry.
- Test system: OVCAR-4
- test_summary: NCI one-dose SRB assay (Ovarian Cancer)
- Format: cell-based, human
- measurement_setup: Homo sapiens; OVCAR-4, 10 μM; read-out: Percentage growth inhibition (GI%)
measured_metric: inhibition at 10 µM (%)

chem_smiles: COc1cccc(NC(=O)Nc2ccc(-c3ccc(OC)c(OC)c3)nc2C)c1
system_name: OVCAR-4
value_unit: %
operator: <
obs_value: 10
--
chem_smiles: COc1ccc(-c2ccc(NC(=O)Nc3cccc(C(F)(F)F)c3)c(C)n2)cc1OC
system_name: OVCAR-4
value_unit: %
operator: =
obs_value: 41
--
chem_smiles: COc1ccc(NC(=O)Nc2ccc(-c3ccc(OC)c(OC)c3)nc2C)cc1
system_name: OVCAR-4
value_unit: %
operator: =
obs_value: 71
--
chem_smiles: COc1ccc(-c2ccc(NC(=O)Nc3ccc(Cl)cc3)c(C)n2)cc1
system_name: OVCAR-4
value_unit: %
operator: =
obs_value: 26
--
chem_smiles: COc1ccc(-c2ccc(NC(=O)Nc3cccc(C(F)(F)F)c3)c(C)n2)cc1
system_name: OVCAR-4
value_unit: %
operator: =
obs_value: 58
--
chem_smiles: COc1ccc(-c2ccc(NC(=O)Nc3ccc(Cl)c(C(F)(F)F)c3)c(C)n2)cc1
system_name: OVCAR-4
value_unit: %
operator: =
obs_value: 55
--
chem_smiles: COc1ccc(-c2ccc(NC(=O)Nc3cccc(Cl)c3)c(C)n2)cc1OC
system_name: OVCAR-4
value_unit: %
operator: <
obs_value: 10
